- measured_target: KPC-2 (Klebsiella pneumoniae, UniProt Q9F663)
- Construct: made in house; host or cells: E. coli
- Sequence (Q9F663 25-293 limits assumed): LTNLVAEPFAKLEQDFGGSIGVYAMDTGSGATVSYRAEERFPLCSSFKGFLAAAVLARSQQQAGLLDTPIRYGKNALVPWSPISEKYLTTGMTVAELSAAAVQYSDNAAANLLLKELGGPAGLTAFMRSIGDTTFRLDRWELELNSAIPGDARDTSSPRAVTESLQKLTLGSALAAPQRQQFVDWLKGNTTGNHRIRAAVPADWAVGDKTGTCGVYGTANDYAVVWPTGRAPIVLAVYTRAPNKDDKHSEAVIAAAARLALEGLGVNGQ
- test_name: β-lactamase inhibitory activity, determination of IC50 (nitrocefin hydrolysis)
- Type: biochemical
- condition_summary: class (A); nitrocefin 200 μM, 30 min pre-incubation; read-out: IC50 β-lactamase KPC-2
pIC50: −log10 of the molar value.
Label yes (1) when pIC50 is at or above 7; anything below gets no (0).

Answer whether pIC50 of O=C1N2CC(c3ncco3)=C[C@H](C2)N1OS(=O)(=O)[O-].[Na+] [Example 44, sulfate] is greater than or equal to 7.
yes (1)

Answer whether pIC50 of O=C1N2CC(c3ccccn3)=CC(C2)N1OS(=O)(=O)[O-].[Na+] (stereo not drawn) is greater than or equal to 7.
yes (1)

Answer whether pIC50 of O=C1N2CC(c3cccnc3)=CC(C2)N1OS(=O)(=O)[O-].[Na+] (stereo not drawn) is greater than or equal to 7.
yes (1)

Answer whether pIC50 of COc1ncc(C2=CC3CN(C2)C(=O)N3OS(=O)(=O)[O-])s1.[Na+] (stereo not drawn) [Example 39, sulfate] is greater than or equal to 7.
yes (1)

Answer whether pIC50 of O=C1N2CC(c3ncco3)=CC(C2)N1OS(=O)(=O)[O-].[Na+] (stereo not drawn) is greater than or equal to 7.
yes (1)

Answer whether pIC50 of Cn1cc(C2=CCN3CC2N(OS(=O)(=O)[O-])C3=O)ncc1=O.[Na+] (stereo not drawn) [Example 14, sulfate] is greater than or equal to 7.
yes (1)

Answer whether pIC50 of O=C1N2CC(c3nc4ccccc4s3)=CC(C2)N1OS(=O)(=O)[O-].[Na+] (stereo not drawn) [Example 27, sulfate] is greater than or equal to 7.
yes (1)

Answer whether pIC50 of Cn1ncc(C2=CCN3CC2N(OS(=O)(=O)[O-])C3=O)cc1=O.[Na+] (stereo not drawn) [Example 19, sulfate] is greater than or equal to 7.
yes (1)

Answer whether pIC50 of O=C1N2CC=C(c3cn[nH]c3)C(C2)N1OS(=O)(=O)[O-].[Na+] (stereo not drawn) [Example 1, sulfate] is greater than or equal to 7.
no (0)

Answer whether pIC50 of Cn1cc(C2=CCN3CC2N(OS(=O)(=O)[O-])C3=O)ccc1=O.[Na+] (stereo not drawn) [Example 8, sulfate] is greater than or equal to 7.
no (0)

Answer whether pIC50 of NCc1cnc(C2=CC3CN(C2)C(=O)N3OS(=O)(=O)O)s1 (stereo not drawn) is greater than or equal to 7.
yes (1)

Answer whether pIC50 of COC(=O)c1ncsc1C1=CCN2CC1N(OS(=O)(=O)[O-])C2=O.[Na+] (stereo not drawn) is greater than or equal to 7.
no (0)

Answer whether pIC50 of O=C1N2CC(c3ncon3)=CC(C2)N1OS(=O)(=O)[O-].[Na+] (stereo not drawn) [Example 36, sulfate] is greater than or equal to 7.
yes (1)

Answer whether pIC50 of O=C1N2CC=C(c3cscn3)C(C2)N1OS(=O)(=O)[O-].[Na+] (stereo not drawn) [Example 31, sulfate] is greater than or equal to 7.
no (0)

Answer whether pIC50 of O=C1N2CC(c3cnco3)=CC(C2)N1OS(=O)(=O)[O-].[Na+] (stereo not drawn) is greater than or equal to 7.
yes (1)

Answer whether pIC50 of O=C1N2CC(c3nc4cccnc4s3)=CC(C2)N1OS(=O)(=O)[O-].[Na+] (stereo not drawn) [Example 40, sulfate] is greater than or equal to 7.
yes (1)

Answer whether pIC50 of Cn1cc(C2=CC3CN(C2)C(=O)N3OS(=O)(=O)[O-])ccc1=O.[Na+] (stereo not drawn) [Example 28, sulfate] is greater than or equal to 7.
yes (1)

Answer whether pIC50 of O=C1N2CC=C(c3cnco3)C(C2)N1OS(=O)(=O)[O-].[Na+] (stereo not drawn) is greater than or equal to 7.
no (0)

Answer whether pIC50 of Cn1c(C2=CCN3CC2N(OS(=O)(=O)[O-])C3=O)cccc1=O.[Na+] (stereo not drawn) [Example 18, sulfate] is greater than or equal to 7.
no (0)

Answer whether pIC50 of Cn1cccc(C2=CCN3CC2N(OS(=O)(=O)[O-])C3=O)c1=O.[Na+] (stereo not drawn) [Example 16, sulfate] is greater than or equal to 7.
no (0)

Answer whether pIC50 of O=C1N2CC=C(c3ccccn3)C(C2)N1OS(=O)(=O)[O-].[Na+] (stereo not drawn) is greater than or equal to 7.
no (0)

Answer whether pIC50 of O=C1N2CC(c3ccncc3)=CC(C2)N1OS(=O)(=O)[O-].[Na+] (stereo not drawn) is greater than or equal to 7.
yes (1)

Answer whether pIC50 of O=C1N2CC=C(c3cnoc3)C(C2)N1OS(=O)(=O)[O-].[Na+] (stereo not drawn) [Example 5, sulfate] is greater than or equal to 7.
no (0)

Answer whether pIC50 of O=C1N2CC(c3cnoc3)=CC(C2)N1OS(=O)(=O)[O-].[Na+] (stereo not drawn) [Example 26, sulfate] is greater than or equal to 7.
yes (1)

* * *

- measured_target: OXA-48 (Klebsiella pneumoniae, UniProt Q6XEC0)
- Construct: made in house; host or cells: E. coli
- Sequence (Q6XEC0 23-265 limits assumed): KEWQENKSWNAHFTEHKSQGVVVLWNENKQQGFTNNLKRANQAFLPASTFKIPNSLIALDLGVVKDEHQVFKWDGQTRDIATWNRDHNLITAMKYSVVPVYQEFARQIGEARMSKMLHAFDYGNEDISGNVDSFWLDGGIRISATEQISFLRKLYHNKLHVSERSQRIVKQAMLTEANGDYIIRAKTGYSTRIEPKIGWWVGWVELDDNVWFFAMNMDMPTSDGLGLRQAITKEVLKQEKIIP
- test_name: β-lactamase inhibitory activity, determination of IC50 (nitrocefin hydrolysis)
- Assay type: biochemical
- condition_summary: class (D); nitrocefin 200 μM, 30 min pre-incubation; read-out: IC50 β-lactamase OXA-48
Provide the recorded pIC50 for the entries that follow.
Interpret pIC50 as the negative base-10 log of the concentration measured in mol/L.

State the recorded pIC50 for this entry: O=C1N2CC(c3cnco3)=CC(C2)N1OS(=O)(=O)[O-].[Na+] (centres unmarked)
8.60

State the recorded pIC50 for this entry: O=C1N2CC(c3ncco3)=CC(C2)N1OS(=O)(=O)[O-].[Na+] (centres unmarked)
8.18

State the recorded pIC50 for this entry: O=C1N2CC(c3cn[nH]c3)=CC(C2)N1OS(=O)(=O)[O-].[Na+] (centres unmarked) [Example 43, sulfate]
8.03

State the recorded pIC50 for this entry: Cn1cc(C2=CCN3CC2N(OS(=O)(=O)[O-])C3=O)cnc1=O.[Na+] (centres unmarked) [Example 15, sulfate]
8.10

State the recorded pIC50 for this entry: Cn1nccc1C1=CCN2CC1N(OS(=O)(=O)[O-])C2=O.[Na+] (centres unmarked) [Example 2, sulfate]
8.55

State the recorded pIC50 for this entry: Cn1cc(C2=CCN3CC2N(OS(=O)(=O)[O-])C3=O)c(=O)n(C)c1=O.[Na+] (centres unmarked) [Example 23, sulfate]
8.32

State the recorded pIC50 for this entry: O=C1N2CC(c3ncon3)=CC(C2)N1OS(=O)(=O)[O-].[Na+] (centres unmarked) [Example 36, sulfate]
8.68

State the recorded pIC50 for this entry: COc1ncc(C2=CC3CN(C2)C(=O)N3OS(=O)(=O)[O-])s1.[Na+] (centres unmarked) [Example 39, sulfate]
9.00

State the recorded pIC50 for this entry: COC(=O)c1ncsc1C1=CCN2CC1N(OS(=O)(=O)[O-])C2=O.[Na+] (centres unmarked)
8.41

State the recorded pIC50 for this entry: O=C1N2CC=C(c3ccncc3)C(C2)N1OS(=O)(=O)[O-].[Na+] (centres unmarked)
8.31

State the recorded pIC50 for this entry: O=C1N2CC(c3nc4ccccc4s3)=CC(C2)N1OS(=O)(=O)[O-].[Na+] (centres unmarked) [Example 27, sulfate]
8.19

State the recorded pIC50 for this entry: O=C1N2CC=C(c3cn[nH]c3)C(C2)N1OS(=O)(=O)[O-].[Na+] (centres unmarked) [Example 1, sulfate]
8.05

State the recorded pIC50 for this entry: Cn1cc(C2=CC3CN(C2)C(=O)N3OS(=O)(=O)[O-])ccc1=O.[Na+] (centres unmarked) [Example 28, sulfate]
7.27

State the recorded pIC50 for this entry: NCc1cnc(C2=CC3CN(C2)C(=O)N3OS(=O)(=O)O)s1 (centres unmarked)
8.11

State the recorded pIC50 for this entry: O=C1N2CC(c3ccccn3)=CC(C2)N1OS(=O)(=O)[O-].[Na+] (centres unmarked)
7.51

State the recorded pIC50 for this entry: O=C1N2CC(c3ncco3)=C[C@H](C2)N1OS(=O)(=O)[O-].[Na+] [Example 44, sulfate]
8.82

State the recorded pIC50 for this entry: O=C1N2CC(c3cccnc3)=CC(C2)N1OS(=O)(=O)[O-].[Na+] (centres unmarked)
8.85

* * *

- measured_target: TEM-1 (Escherichia coli)
- Construct: made in house; host or cells: E. coli
- Sequence (P62593 24-286 limits assumed): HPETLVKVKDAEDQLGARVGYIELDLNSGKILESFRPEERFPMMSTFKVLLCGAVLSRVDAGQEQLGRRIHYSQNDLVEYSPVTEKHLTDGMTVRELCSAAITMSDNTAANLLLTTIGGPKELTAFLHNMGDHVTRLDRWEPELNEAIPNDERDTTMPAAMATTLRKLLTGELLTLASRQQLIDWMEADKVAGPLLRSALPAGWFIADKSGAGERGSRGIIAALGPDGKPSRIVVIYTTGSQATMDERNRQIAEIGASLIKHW
- test_name: β-lactamase inhibitory activity, determination of IC50 (nitrocefin hydrolysis)
- Type: biochemical
- condition_summary: class (A); nitrocefin 200 μM, 30 min pre-incubation; read-out: IC50 β-lactamase TEM-1
recorded_endpoint: pIC50
Interpret pIC50 as the negative base-10 log of the concentration measured in mol/L.

State the recorded pIC50 for this entry: COC(=O)c1ncsc1C1=CCN2CC1N(OS(=O)(=O)[O-])C2=O.[Na+] (stereo not shown) [Example 22]
8.30
